Sourced from patent US20080261994A1

# system: aggrecanase-1 (Homo sapiens, UniProt O75173)
# Sequence (O75173 213-837): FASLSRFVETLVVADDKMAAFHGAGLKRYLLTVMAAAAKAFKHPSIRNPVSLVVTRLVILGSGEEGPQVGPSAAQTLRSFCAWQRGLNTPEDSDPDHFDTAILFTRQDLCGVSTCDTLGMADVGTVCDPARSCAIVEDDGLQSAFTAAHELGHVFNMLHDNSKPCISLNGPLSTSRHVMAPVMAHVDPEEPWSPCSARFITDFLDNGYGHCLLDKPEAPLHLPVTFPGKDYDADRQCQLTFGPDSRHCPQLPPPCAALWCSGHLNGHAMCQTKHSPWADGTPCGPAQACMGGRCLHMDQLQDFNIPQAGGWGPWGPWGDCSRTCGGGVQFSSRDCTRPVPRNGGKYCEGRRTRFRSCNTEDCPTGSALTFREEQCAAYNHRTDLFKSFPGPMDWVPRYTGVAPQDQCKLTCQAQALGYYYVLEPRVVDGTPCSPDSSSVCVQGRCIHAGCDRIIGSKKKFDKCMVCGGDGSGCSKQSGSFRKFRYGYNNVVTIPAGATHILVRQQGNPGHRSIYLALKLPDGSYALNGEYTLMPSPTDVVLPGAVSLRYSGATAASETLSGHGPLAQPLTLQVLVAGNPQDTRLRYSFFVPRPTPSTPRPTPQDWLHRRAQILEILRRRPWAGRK
# experimentDescription: Aggrecanase-1 inhibitory action (Particle Assay, GAG release from aggrecan-containing polyacrylamide particles)
# Assay type: biochemical
# appliedConditions: Experimental Example 1; read-out: IC50 AG1
pIC50: −log10 of the molar value.
testReadout: pIC50

Some solved entries appear below for comparison.
>>> print(df.to_string())
                                   molecule                                    system  result
0  O=C(NCC1(c2ccccc2)CC1(NS(=O)(=O)c1ccc(-c2ccc(Cl)cc2)s1)C(=O)O)N1CCOCC1 (centres unmarked) [Example 2-381]  aggrecanase-1 (Homo sapiens, UniProt O75173)  > 6.00
1  O=C(O)C1(NS(=O)(=O)c2cn3cc(-c4ccc(F)cc4)nc3s2)CC1c1ccccc1 (centres unmarked) [Example 2-491]  aggrecanase-1 (Homo sapiens, UniProt O75173)  ≤ 6.00
2  COc1cccc([C@@]2(C)C[C@@]2(NS(=O)(=O)c2ccc(-c3cc(C(F)(F)F)on3)s2)C(=O)O)c1 [Example 2-624]  aggrecanase-1 (Homo sapiens, UniProt O75173)  > 7.00
3  CC1(C)C(c2ccccc2)C1(NS(=O)(=O)c1ccc(-c2ccc(Cl)cc2)s1)C(=O)O (centres unmarked) [Example 2-274]  aggrecanase-1 (Homo sapiens, UniProt O75173)  > 7.00
4  CN(c1ccccc1)c1ccc(S(=O)(=O)N[C@@]2(C(=O)O)C[C@]2(C)c2ccccc2)s1 [Example 2-515]  aggrecanase-1 (Homo sapiens, UniProt O75173)  ≤ 6.00
5  C[C@]1(c2ccccc2)C[C@@]1(NS(=O)(=O)c1ccc(-c2cccc(NS(C)(=O)=O)c2)s1)C(=O)O [Example 2-453]  aggrecanase-1 (Homo sapiens, UniProt O75173)  ≤ 6.00

### Prompt Fill in the blank: the reported pIC50 of O=C(NCCCC1(c2ccccc2)CC1(NS(=O)(=O)c1ccc(-c2ccc(Cl)cc2)s1)C(=O)O)OC1CCCC1 (centres unmarked) [Example 2-298] is ____.
### Response > 7.00

### Prompt Fill in the blank: the reported pIC50 of O=C(O)C1(NS(=O)(=O)c2ccc(-c3cc(C(F)(F)F)on3)s2)CC1c1cc(CO)on1 (centres unmarked) [Example 2-317] is ____.
### Response > 6.00

### Prompt Fill in the blank: the reported pIC50 of O=C(O)C1(NS(=O)(=O)c2ccc(-c3cc(C(F)(F)F)on3)o2)C2CCCc3ccccc3C21 (centres unmarked) [Example 2-373] is ____.
### Response ≤ 6.00

### Prompt Fill in the blank: the reported pIC50 of Cc1cn(-c2ccc(S(=O)(=O)N[C@@]3(C(=O)O)C(C)[C@@H]3c3ccccc3)s2)cn1 (some centres unmarked) [Example 2-367] is ____.
### Response ≤ 6.00

### Prompt Fill in the blank: the reported pIC50 of CCNC(=O)OCC1(c2ccccc2)CC1(NS(=O)(=O)c1ccc(-c2cc(C(F)(F)F)on2)s1)C(=O)O (centres unmarked) [Example 2-321] is ____.
### Response > 6.00

### Prompt Fill in the blank: the reported pIC50 of CC1C(NS(=O)(=O)c2ccc(-c3cc(C(F)(F)F)on3)s2)(C(=O)O)C1(C)c1ccccc1 (centres unmarked) [Example 2-597] is ____.
### Response ≤ 6.00

### Prompt Fill in the blank: the reported pIC50 of CC1[C@H](c2ccccc2)[C@]1(NS(=O)(=O)N1CCCN(c2ccc(Cl)cc2)CC1)C(=O)O (some centres unmarked) [Example 2-454] is ____.
### Response > 6.00

### Prompt Fill in the blank: the reported pIC50 of C[C@]1(c2ccccc2)C[C@@]1(NS(=O)(=O)c1ccc(-c2ccc(O)cc2)s1)C(=O)O [Example 2-582] is ____.
### Response > 6.00

### Prompt Fill in the blank: the reported pIC50 of CC(C)(C)OC(=O)NCCCC1(c2ccccc2)CC1(NS(=O)(=O)c1ccc(-c2ccc(Cl)cc2)s1)C(=O)O (centres unmarked) [Example 2-284] is ____.
### Response > 7.00

### Prompt Fill in the blank: the reported pIC50 of Cc1nc(-c2ccc(S(=O)(=O)N[C@@]3(C(=O)O)C(C)[C@@H]3c3ccccc3)s2)no1 (some centres unmarked) [Example 2-451] is ____.
### Response ≤ 6.00

### Prompt Fill in the blank: the reported pIC50 of CC1[C@H](c2ccccc2)[C@]1(NS(=O)(=O)c1ccc(OCc2ccc(Cl)cc2Cl)cc1)C(=O)NO (some centres unmarked) [Example 2-325] is ____.
### Response ≤ 6.00

### Prompt Fill in the blank: the reported pIC50 of CC1[C@H](c2ccccc2)[C@]1(NS(=O)(=O)N1CCN(c2ccc(C(F)(F)F)cc2)C(=O)C1)C(=O)O (some centres unmarked) [Example 2-504] is ____.
### Response ≤ 6.00

### Prompt Fill in the blank: the reported pIC50 of CC(C)NCC1(c2ccccc2)CC1(NS(=O)(=O)c1ccc(-c2ccc(Cl)cc2)s1)C(=O)O (centres unmarked) [Example 2-392] is ____.
### Response ≤ 6.00
